Tested on: Liver
Assay: Half life in mouse liver microsomes assessed as formation of oxidation product and glucuronide conjugate
Format: ADME, Microsome
outcomeMeasure: t1/2

Examples with answers:
1. CN(C)c1ccnc2c1nc(C1CCC1)n2Cc1cc(=O)[nH]c2c(F)c(F)ccc12 :: 0.13 h
2. Cn1cncc1-c1nc2ccccc2n1Cc1cc(=O)[nH]c2c(F)c(F)ccc12 :: > 2 h
3. CC(C)Cc1nc2ccccc2n1Cc1cc(=O)[nH]c2c(F)c(F)ccc12 :: 1.83 h
4. Cc1ncsc1-c1nc2ccccc2n1Cc1cc(=O)[nH]c2c(F)cccc12 :: > 2 h
5. Cc1ncsc1-c1nc2ccccc2n1Cc1cc(=O)[nH]c2c(F)c(F)ccc12 :: 1.63 h

IN: # get_value(readout='t1/2', item= O=c1cc(Cn2c(C3CCCCC3)nc3ccccc32)c2ccc(F)c(F)c2[nH]1 )
OUT: > 2 h

IN: t1/2 for CC(C)CCc1nc2ccccc2n1Cc1cc(=O)[nH]c2c(F)c(F)ccc12 ?
OUT: > 2 h

IN: Requested read-out: t1/2. Entry: O=c1cc(Cn2c(C3CC(F)(F)C3)nc3nccnc32)c2cccc(F)c2[nH]1
OUT: > 2 h

====

Species: Homo sapiens
Test: Ratio of IC50 for human eNOS to EC50 for human iNOS
Listed below: Ratio EC50 values for each entry.

Reference set, count: 5
1. O=c1cc(Cn2c(C3CCC3)nc3ccncc32)c2ccc(F)c(F)c2[nH]1 :: > 220
2. CC(C)CCc1nc2ccccc2n1Cc1cc(=O)[nH]c2c(F)c(F)ccc12 :: > 74
3. O=c1cc(Cn2c(C3CCCCC3)nc3ccccc32)c2ccc(F)c(F)c2[nH]1 :: > 11
4. Cc1ccncc1-c1nc2ccccc2n1Cc1cc(=O)[nH]c2c(F)c(F)ccc12 :: > 8
5. COc1ccnc2c1nc(C1CCC1)n2Cc1cc(=O)[nH]c2c(F)c(F)ccc12 :: > 480

IN: Give the measured Ratio EC50 of Cc1ncsc1C(=O)N(Cc1cc(=O)[nH]c2c(F)cccc12)c1ccccc1 .
OUT: > 500

====

System: Liver
Assay: Half life in mouse liver microsomes assessed as formation of oxidation product and glucuronide conjugate
Format: ADME, Microsome
outcomeMeasure: t1/2

1) CC(C)Cc1nc2nccnc2n1Cc1cc(=O)[nH]c2c(F)c(F)ccc12 :: 0.783 h
2) O=c1cc(Cn2c(C3CCC3)nc3cnccc32)c2ccc(F)c(F)c2[nH]1 :: > 2 h

IN: Form field: t1/2 recorded for O=c1cc(Cn2c(C3CCC3)nc3nccnc32)c2cccc(F)c2[nH]1 with Liver (enter value)
OUT: > 2 h
